TESTED_ON: Recombinant human IL-1β (BioLegend 579404) (human, UniProt P01584 117-269)
TEST_METHOD_NOTES: cell-based or functional assay
Starred links: 1 amine or outer side, 2 acyl side, 3 side chain; linkers in the order of their positions; H or OH if unused. Non-standard residues stand in square brackets, D forms with d. RbOH4Pal = (2S,3R)-2-amino-3-hydroxy-3-(4-pyridyl)propanoic acid, O=C([C@@H](N[*:1])[C@H](O[*:3])c1ccncc1)[*:2]; AlaPiperazAc = (S)-3-(4-acetylpiperazin-1-yl)-2-aminopropanoic acid, CC(=O)N1CCN(C[C@H](N[*:1])C(=O)[*:2])CC1; Trp(βS-Me,4-F) = C[C@@H](c1c[nH]c2cccc(F)c12)[C@H](N)C(=O)O; Bip(4'-COOH) = N[C@@H](Cc1ccc(-c2ccc(C(=O)O)cc2)cc1)C(=O)O; dPro(4R-Bzl(4-F)) = O=C(O)[C@H]1C[C@@H](Cc2ccc(F)cc2)CN1; Ala(pyrimidin-5-yl) = N[C@@H](Cc1cncnc1)C(=O)O; Phe(4-COOH) = N[C@@H](Cc1ccc(C(=O)O)cc1)C(=O)O; Ala(4-Pyridazinyl) = N[C@@H](Cc1ccnnc1)C(=O)O; Pro(cis-4-F) = O=C(O)[C@@H]1C[C@H](F)CN1; d(αMeD) = C[C@@](N)(CC(=O)O)C(=O)O; 4Pal = N[C@@H](Cc1ccncc1)C(=O)O; Dab = NCC[C@H](N)C(=O)O; Aib = CC(C)(N)C(=O)O
REPORTED_ENDPOINT: MRC5 IC50 (nM)
Give bare numbers, in nM.

Consider the reported MRC5 IC50 for these binders:
So what does the record say about MRC5 IC50 for cyclo([Bip(4'-COOH)][4Pal][Phe(4-COOH)]G[Pro(cis-4-F)][Trp(βS-Me,4-F)][Aib]SW[d(αMeD)][Ala(4-Pyridazinyl)]Q[Dab]G[dPro(4R-Bzl(4-F))]) (ring closure inferred) [SEQ ID NO 322] ? 0.013

So what does the record say about MRC5 IC50 for cyclo([Bip(4'-COOH)][RbOH4Pal][Phe(4-COOH)]G[Pro(cis-4-F)][Trp(βS-Me,4-F)][Aib]SW[Aib][Ala(pyrimidin-5-yl)]Q[Dab]G[dPro(4R-Bzl(4-F))]) (ring closure inferred) [SEQ ID NO 274] ? 0.026

Next binder, MRC5 IC50 to be filled in.
So what does the record say about MRC5 IC50 for cyclo([Bip(4'-COOH)][4Pal][Phe(4-COOH)]G[Pro(cis-4-F)][Trp(βS-Me,4-F)][Aib]EW[Aib][AlaPiperazAc]QSG[dPro(4R-Bzl(4-F))]) (ring closure inferred) [SEQ ID NO 271] ? 0.023
